Molecular target: T1, Recombinant human IL-18 (human, UniProt Q14116 37-193)
T1 construct: Used unlabeled or biotinylated depending on the assay step; also called Hu IL-18; hr IL-18
T1 sequence: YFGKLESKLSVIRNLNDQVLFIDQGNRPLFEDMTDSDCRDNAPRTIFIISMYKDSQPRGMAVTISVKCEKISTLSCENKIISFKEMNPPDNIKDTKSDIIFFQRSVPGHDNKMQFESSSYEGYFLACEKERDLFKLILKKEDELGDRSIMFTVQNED
Test: solution equilibrium titration (SET), ECL detection
experimental.readout: pKd
The meaning of pKd here: minus log10 of the concentration in molar units.

GET /values?readout=pKd&item= MOR08775 (antibody, human IgG1, lambda, V domains shown, also called MOR8775) VH: QVQLVQSGAEVKKPGSSVKVSCKASGGTFNSYAISWVRQAPGQGLEWMGGIIPIYGTANYAQKFQGRVTITADESTSTAYMELSSLRSEDTAVYYCARAAYHPLVFDNWGQGTLVTVSS VL: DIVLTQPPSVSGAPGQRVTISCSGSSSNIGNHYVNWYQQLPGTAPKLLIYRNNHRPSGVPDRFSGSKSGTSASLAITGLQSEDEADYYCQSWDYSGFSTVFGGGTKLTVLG
10.19
